// values below are reported pEC50
biological target: recombinant DYRK1A kinase (Homo sapiens (Human), UniProt Q13627); test: DYRK1A kinase assay (Ser/Thr 18 peptide Z-lyte FRET assay); conditions: recombinant DYRK1A 0.25 µg/mL, ATP 15 µM, Ser/Thr peptide 18 4 µM, one hour at room temperature; table head prints EC50, method says IC50
pEC50: −log10 of the molar value.
metric: pEC50

inputsmiles=CC(=O)N1CC2(CCC(Nc3ncc4c(-c5ccc6nc(C)n(CC(F)F)c6n5)ccn4n3)CC2)C1 systemundertest="recombinant DYRK1A kinase (Homo sapiens (Human), UniProt Q13627)" valuereported=9.00
inputsmiles=Cc1nc2ccc(-c3ccn4nc(N[C@H]5CC[C@@H](CO)CC5)ncc34)nc2n1CC(F)F systemundertest="recombinant DYRK1A kinase (Homo sapiens (Human), UniProt Q13627)" valuereported=8.22
inputsmiles=Cc1nc2ccc(-c3ccn4nc(N[C@H]5CN(C)C[C@H]5F)ncc34)nc2n1CC(F)F systemundertest="recombinant DYRK1A kinase (Homo sapiens (Human), UniProt Q13627)" valuereported=7.92
inputsmiles=c1cn2cc(-c3ccn4nc(NC5CCOCC5)ncc34)cnc2n1 systemundertest="recombinant DYRK1A kinase (Homo sapiens (Human), UniProt Q13627)" valuereported=7.82
inputsmiles=O[C@H]1CC[C@@H](Nc2ncc3c(-c4cnc5ncccc5c4)ccn3n2)CC1 systemundertest="recombinant DYRK1A kinase (Homo sapiens (Human), UniProt Q13627)" valuereported=8.15
inputsmiles=Cc1nc2ccc(-c3ccn4nc(N[C@H]5CN(C6COC6)C[C@H]5F)ncc34)nc2n1CC(F)F systemundertest="recombinant DYRK1A kinase (Homo sapiens (Human), UniProt Q13627)" valuereported=7.89
inputsmiles=COc1ncnc2ccc(-c3ccn4nc(NCC(C)(C)F)ncc34)cc12 systemundertest="recombinant DYRK1A kinase (Homo sapiens (Human), UniProt Q13627)" valuereported=6.83
inputsmiles=CCO[C@H]1C[C@@H](Nc2ncc3c(-c4cnc5ncccc5c4)ccn3n2)C1 systemundertest="recombinant DYRK1A kinase (Homo sapiens (Human), UniProt Q13627)" valuereported=6.02
